Entry source: the supplement of paper PMC12042874

assay: amyloid nucleation score (Sup35N fusion, yeast selection) (log enrichment); library NNK3; higher = more nucleation; inactive = no reads after selection;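 also: zero at mode of non-aggregating sequences after 7 days selection at 30°C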
READOUT KIND: amyloid nucleation score

Consider the reported amyloid nucleation score for these substances:
SUBSTANCE	amyloid nucleation score
NESLIKVCSALILRKNMCGP	inactive
FYVLNMNDLTSGLDMHVKS	inactive
MHAVDNNLRVNIIMSVLLYK	inactive
STIDKCLYINIAIYAIFPDF	1.31
LLLRLLTMMVFNCILVDYGL	inactive

Looking up `LKVNIWLPGRPFTILWSPRR` , I found its amyloid nucleation score recorded as inactive

====

assay: amyloid nucleation score (Sup35N fusion, yeast selection) (log enrichment); library NNK2; higher = more nucleation; inactive = no reads after selection
READOUT KIND: amyloid nucleation score

Consider the reported amyloid nucleation score for these substances:
SUBSTANCE	amyloid nucleation score
CCFVVISYDRNSQLH	9.79
SFIRMWKDRLYHRLVALNRV	1
CHSLRILRPRIYSVQVMLIG	-0.01
STFFKLD	-1.88
QCVVTVCDRL	1.73
WNLYSLSN	inactive
FRCHYFNWNDFALAVSFSKE	-0.33
GCVLAQLSSVGSGVLML	3.14

Looking up `TLNLDFFELSMPGDFSDLVS` , I found its amyloid nucleation score recorded as inactive

Looking up `LTIDQHKVCLPN` , I found its amyloid nucleation score recorded as inactive

Looking up `NTLKVQIV` , I found its amyloid nucleation score recorded as 2.94

Looking up `TLYKFM` , I found its amyloid nucleation score recorded as -0.476

Looking up `CFSKMFNV` , I found its amyloid nucleation score recorded as -1.03

Looking up `YCGFVFPAWGDLLTNGSPAA` , I found its amyloid nucleation score recorded as 0.092

Looking up `HIFFTDKFGGYVFLYPDFVA` , I found its amyloid nucleation score recorded as inactive

Looking up `NSMNVEHNMYNLFIYMPSFV` , I found its amyloid nucleation score recorded as 7.07

Looking up `MLSTTEVCVGPDRD` , I found its amyloid nucleation score recorded as 3.89

Looking up `VYQYWYIAISLRGRPGQCRL` , I found its amyloid nucleation score recorded as 4.06
